Origin of values: patent US7495018B2

Reported values of melting point for individual entries

{"ITEM_SMILES": "CCc1nc(-c2cccc(Br)c2)c(-c2ccnc(NC(=O)OC(C)(C)C)c2)s1", "melting point": "172 to 174 °C"}
{"ITEM_SMILES": "CCc1nc(-c2cccc(Cl)c2)c(-c2ccnc(NC(=O)CC3CCCC3)c2)s1", "melting point": "121 to 122 °C"}
{"ITEM_SMILES": "CCC(=O)Nc1cc(-c2sc(CSC)nc2-c2cccc(Cl)c2)ccn1", "melting point": "118 to 119 °C"}

With those in mind, consider the next compound.
Suppose we examine the compound "O=C(Nc1nc(-c2ccc(F)cc2)c(-c2ccnc(NC3CCCCC3)c2)s1)c1cccnc1" ; what melting point value has been reported?
136 to 138 °C
